The following compounds are shown together with reported pKd values.
- Measured target: human HER2 (23-652) (Homo sapiens, UniProt P04626)
- Protocol details: Surface plasmon resonance (SPR) for assessment of peptide affinity, human HER2
- Type: binding
- Set-up: towards human HER2 (23-652) and mouse HER2 (23-653); made in house
- Condition info: SPR, human HER2 extracellular domain, 25° C., 1:1 binding model; read-out: huHER2-SPR-ONC KD
Counter-ions that a name gives are not always drawn. Positions of bridges follow the written chain, without caps; N, C: chain ends. Non-standard residues stand in square brackets, D forms with d. Residues, ends and D or L forms follow the SMILES beside them. Trp(5-OH) = N[C@@H](Cc1c[nH]c2ccc(O)cc12)C(=O)O; NMePhe(4-F) = CN[C@@H](Cc1ccc(F)cc1)C(=O)O; NMehPhe = CN[C@@H](CCc1ccccc1)C(=O)O; Gly(cPr) = N[C@H](C(=O)O)C1CC1; NMehCys = CN[C@@H](CCS)C(=O)O; NMeK = CN[C@@H](CCCCN)C(=O)O; NMeDap = CN[C@@H](CN)C(=O)O; NMeS = CN[C@@H](CO)C(=O)O
Recall that pKd is obtained by taking minus log10 of the concentration measured in molar.

- CC(=O)NCCCC[C@H]1C(=O)N[C@@H](Cc2c[nH]c3ccc(O)cc23)C(=O)N[C@@H](Cc2c[nH]c3ccccc23)C(=O)N[C@@H](C2CC2)C(=O)N(C)[C@H](C(=O)N(C)[C@@H](Cc2ccc(F)cc2)C(N)=O)CCSSC[C@H](N)C(=O)N[C@@H](Cc2ccc(O)cc2)C(=O)N[C@@H](CO)C(=O)N(C)[C@@H](CCc2ccccc2)C(=O)N1C [Example A56, TFA salt] (H-CYS[NMehPhe][NMeK](Ac)[Trp(5-OH)]W[Gly(cPr)][NMehCys][NMePhe(4-F)]-NH2; disulfide 1-9): 6.35
- CC(=O)NCCCC[C@H]1C(=O)N[C@@H](Cc2c[nH]c3ccc(O)cc23)C(=O)N[C@@H](Cc2c[nH]c3ccccc23)C(=O)N[C@@H]([C@H](C)O)C(=O)N(C)[C@H](C(=O)N(C)[C@@H](Cc2ccc(F)cc2)C(=O)N[C@@H](CCCCNC(=O)N2CCN(CC(=O)O)CC2)C(=O)N[C@H](CCCCNC(=O)CN2CCN(CC(=O)O)CCN(CC(=O)O)CCN(CC(=O)O)CC2)C(N)=O)CNC(=O)CC[C@H](NC(C)=O)C(=O)N[C@@H](Cc2ccc(O)cc2)C(=O)N[C@@H](CO)C(=O)N(C)[C@@H](CCc2ccccc2)C(=O)N1C: 7.33
- CC(=O)NCCCC[C@H]1C(=O)N[C@@H](Cc2c[nH]c3ccc(O)cc23)C(=O)N[C@H](Cc2c[nH]c3ccccc23)C(=O)N[C@@H](C2CC2)C(=O)N(C)[C@H](C(=O)N(C)[C@@H](Cc2ccc(F)cc2)C(=O)N[C@@H](CCCCNC(=O)CN2CCN(CC(=O)O)CCN(CC(=O)O)CCN(CC(=O)O)CC2)C(N)=O)CNC(=O)CCC[C@H](NC(C)=O)C(=O)N[C@@H](Cc2ccc(O)cc2)C(=O)N[C@@H](CO)C(=O)N(C)[C@@H](CCc2ccccc2)C(=O)N1C [Example B9]: 5.29
- CC(=O)N[C@H]1CC(=O)NC[C@@H](C(=O)N(C)[C@@H](Cc2ccc(F)cc2)C(N)=O)N(C)C(=O)[C@H](C2CC2)NC(=O)[C@H](Cc2c[nH]c3ccccc23)NC(=O)[C@H](Cc2c[nH]c3ccc(O)cc23)NC(=O)[C@H](CO)N(C)C(=O)[C@H](CCc2ccccc2)N(C)C(=O)[C@H](CO)NC(=O)[C@H](Cc2ccc(O)cc2)NC1=O [Example A28] (Ac-DYS[NMehPhe][NMeS][Trp(5-OH)]W[Gly(cPr)][NMeDap][NMePhe(4-F)]-NH2; lactam 1-9): 6.51

Lookup: Return value of pKd for input CC(=O)N[C@H]1CCCC(=O)NC[C@@H](C(=O)N(C)[C@@H](Cc2ccc(F)cc2)C(=O)N2CCC[C@H]2C(N)=O)N(C)C(=O)[C@H](C2CC2)NC(=O)[C@H](Cc2c[nH]c3ccccc23)NC(=O)[C@H](Cc2c[nH]c3ccc(O)cc23)NC(=O)[C@H](CO)N(C)C(=O)[C@H](CCc2ccccc2)N(C)C(=O)[C@H](CO)NC(=O)[C@H](Cc2ccc(O)cc2)NC1=O , no commentary.
Found: 7.96

Lookup: Return value of pKd for input CC(=O)NCCCC[C@H]1C(=O)N[C@@H](Cc2c[nH]c3ccc(O)cc23)C(=O)N[C@@H](Cc2c[nH]c3ccccc23)C(=O)N[C@@H]([C@H](C)O)C(=O)N(C)[C@H](C(=O)N(C)[C@@H](Cc2ccc(F)cc2)C(=O)N[C@@H](CCCCNC(=O)CN2CCN(CC(=O)O)CCN(CC(=O)O)CCN(CC(=O)O)CC2)C(N)=O)CNC(=O)CC[C@H](NC(C)=O)C(=O)N[C@@H](Cc2ccc(O)cc2)C(=O)N[C@@H](CO)C(=O)N(C)[C@@H](CCc2ccccc2)C(=O)N1C , no commentary.
Found: 9.22

Lookup: Return value of pKd for input CC(=O)N[C@H]1CCC(=O)NC[C@@H](C(=O)N(C)[C@@H](Cc2ccc(F)cc2)C(N)=O)NC(=O)[C@H](C2CC2)NC(=O)[C@H](Cc2c[nH]c3ccccc23)NC(=O)[C@H](Cc2c[nH]c3ccc(O)cc23)NC(=O)[C@H](CO)N(C)C(=O)[C@H](CCc2ccccc2)N(C)C(=O)[C@H](CO)NC(=O)[C@H](Cc2ccc(O)cc2)NC1=O , no commentary.
Found: 5.87
